# Tested on: TNK1;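 also: KINOMEscan kinase panel screen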
# stated.conditions: concentration: 1 μM,replicates: in singlicate; n = 1
// reported %Inh per item

{"columns": ["molecule", "assayed.target", "%Inh (%)"],
 "data": [
  ["COc1cc(Nc2nccc(N3CCC(NC(=O)c4cccc(C#N)c4)C3)n2)cc(OC)c1OC (centres unmarked) [GSK1379751]", "TNK1", 98.9],
  ["COc1cc2c(Nc3ccc(NC(=O)c4ccccc4)cc3)ncnc2cc1OCCCN1CCOCC1 [GSK301329]", "TNK1", 56],
  ["CCOC(=O)N1CCC(n2cnc(-c3ccc(F)cc3)c2-c2ccnc(N)n2)CC1 [SB-219952]", "TNK1", 21],
  ["CC(=O)Nc1nc2cnc(Nc3cc(NC(=O)c4cccc(CC(C)(C)C#N)c4)ccc3C)nc2s1", "TNK1", 7],
  ["O=C(NCC1CC1)c1ccc(-c2cc(C(=O)NC3CC3)ccc2F)cc1 [GW810445]", "TNK1", 30],
  ["Nc1nccc(-c2ccc3c(N)n[nH]c3c2)n1 [GSK1034945]", "TNK1", 0],
  ["Cc1ccc(Nc2ccnc(Nc3ccc4c(c3)CS(=O)(=O)C4)n2)cc1O.Cl [GW579362]", "TNK1", 85],
  ["COc1cccc(CNC(=O)NC2CCN(c3ccnc(Nc4cc(OC)c(OC)c(OC)c4)n3)C2)c1 (centres unmarked) [GSK1379765]", "TNK1", 0]
]}
